Where do these numbers come from? They come from the supplement of paper PMC10126150.

Test system: ATP;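 note: ATP exposure 15 min at 22 °C before imaging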
protocol details: switch fluorescence ratio, 500 uM ATP over buffer (Cy3 cluster intensity, sum of 5 cycles each) (fold (ratio)); higher = stronger signal-on switching upon ATP binding; sequences stand for … in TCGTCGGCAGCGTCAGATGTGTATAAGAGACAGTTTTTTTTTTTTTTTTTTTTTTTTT…TC
assay setup: aptamer strand: ATP DNA aptamer (quencher-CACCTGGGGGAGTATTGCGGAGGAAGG + anchor), 100 nM annealed; ATP concentration: 500 uM
assay readout: switch fluorescence ratio

sequence_chain=TGCTTGTGTT assay_readout="switch fluorescence ratio" val=0.991
sequence_chain=CAGGGCGGGG assay_readout="switch fluorescence ratio" val=0.979
sequence_chain=TTATGACAAC assay_readout="switch fluorescence ratio" val=1.01
sequence_chain=TGGTGGGGAA assay_readout="switch fluorescence ratio" val=0.974
sequence_chain=GGGCGGGAAC assay_readout="switch fluorescence ratio" val=1.01
sequence_chain=GAAGAATTGT assay_readout="switch fluorescence ratio" val=0.991
sequence_chain=CATGTTGATG assay_readout="switch fluorescence ratio" val=1.01
sequence_chain=AGATATTAGA assay_readout="switch fluorescence ratio" val=1.02
sequence_chain=TTTTGAACCA assay_readout="switch fluorescence ratio" val=1.05
sequence_chain=TAGAGAGGGA assay_readout="switch fluorescence ratio" val=1.04
sequence_chain=GGAAATACGA assay_readout="switch fluorescence ratio" val=1.27
sequence_chain=GGCGTAGCTT assay_readout="switch fluorescence ratio" val=1.01
sequence_chain=GAATTTGGGA assay_readout="switch fluorescence ratio" val=0.997
sequence_chain=TTTCGTTATT assay_readout="switch fluorescence ratio" val=1.34
sequence_chain=TGAGATGGTT assay_readout="switch fluorescence ratio" val=1.01
sequence_chain=GGGGCCGAGG assay_readout="switch fluorescence ratio" val=0.957
sequence_chain=ATAGAAGTTA assay_readout="switch fluorescence ratio" val=0.985
sequence_chain=TCGAGATCCG assay_readout="switch fluorescence ratio" val=0.996
sequence_chain=CAATGGCCGG assay_readout="switch fluorescence ratio" val=1.02
sequence_chain=CCTGGCTCAT assay_readout="switch fluorescence ratio" val=1.06
